Tested on: Ox receptor
Assay Summary: Ox receptor binding, [3H]-rilmenidine displacement in rat brain homogenates
Metric Name: Selectivity Ox/I2
The response must contain the number and no unit.

- Compound: "C[C@@H](NC1=NCCO1)C1CCCCC1 [(R)-(−)-O504]"
  Selectivity Ox/I2: 1.8

Would you kindly share the measured Selectivity Ox/I2 for COC1(C2=NCCN2)COc2ccccc2O1 (stereo not drawn) ? 0.08

Record request: Selectivity Ox/I2 value, item CCC1CCCC(CC)C1NC1=NCCO1 (stereo not drawn) 383

# get_value(readout='Selectivity Ox/I2', item= `c1ccc(C(NC2=NCCO2)c2ccccc2)cc1` ) 12

Requested read-out: Selectivity Ox/I2. Entry: C[C@H](NC1=NCCO1)C1CCCCC1 [(S)-(+)-O504] 6.7

Selectivity Ox/I2 for `C1CCC(C(NC2=NCCO2)C2CCCCC2)CC1` ? 32
